Experimental System: PI3Kδ (p110δ/p85α) Recombinant Human Protein (Homo sapiens (Human))
Sequence (O00329 whole entry): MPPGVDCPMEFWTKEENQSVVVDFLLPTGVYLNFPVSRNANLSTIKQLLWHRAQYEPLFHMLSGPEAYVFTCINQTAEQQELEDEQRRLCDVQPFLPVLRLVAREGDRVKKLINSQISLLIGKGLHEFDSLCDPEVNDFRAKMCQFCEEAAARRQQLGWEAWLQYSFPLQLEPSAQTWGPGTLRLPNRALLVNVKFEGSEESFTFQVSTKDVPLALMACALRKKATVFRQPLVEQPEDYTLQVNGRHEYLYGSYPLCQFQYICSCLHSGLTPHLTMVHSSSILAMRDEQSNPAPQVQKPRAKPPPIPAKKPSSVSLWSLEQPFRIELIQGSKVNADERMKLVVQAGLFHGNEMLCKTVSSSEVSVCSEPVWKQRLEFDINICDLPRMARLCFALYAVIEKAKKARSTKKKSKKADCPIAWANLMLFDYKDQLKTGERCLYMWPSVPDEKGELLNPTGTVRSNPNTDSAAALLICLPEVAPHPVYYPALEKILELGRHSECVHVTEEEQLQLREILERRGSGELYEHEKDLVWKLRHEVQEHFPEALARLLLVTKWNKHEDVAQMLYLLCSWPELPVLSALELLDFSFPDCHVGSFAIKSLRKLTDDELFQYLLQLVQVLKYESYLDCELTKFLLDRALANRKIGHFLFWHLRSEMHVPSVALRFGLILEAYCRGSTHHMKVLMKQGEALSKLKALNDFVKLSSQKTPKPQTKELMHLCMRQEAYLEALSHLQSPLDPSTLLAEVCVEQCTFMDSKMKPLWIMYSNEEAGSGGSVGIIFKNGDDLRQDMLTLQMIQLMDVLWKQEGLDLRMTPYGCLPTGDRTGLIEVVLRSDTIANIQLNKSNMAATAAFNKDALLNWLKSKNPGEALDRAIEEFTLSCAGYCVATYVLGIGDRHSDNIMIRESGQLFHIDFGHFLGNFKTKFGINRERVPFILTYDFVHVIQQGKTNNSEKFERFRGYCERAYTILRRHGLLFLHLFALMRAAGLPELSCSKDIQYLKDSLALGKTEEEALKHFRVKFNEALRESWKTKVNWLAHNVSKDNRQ
Sequence (P27986 whole entry partner): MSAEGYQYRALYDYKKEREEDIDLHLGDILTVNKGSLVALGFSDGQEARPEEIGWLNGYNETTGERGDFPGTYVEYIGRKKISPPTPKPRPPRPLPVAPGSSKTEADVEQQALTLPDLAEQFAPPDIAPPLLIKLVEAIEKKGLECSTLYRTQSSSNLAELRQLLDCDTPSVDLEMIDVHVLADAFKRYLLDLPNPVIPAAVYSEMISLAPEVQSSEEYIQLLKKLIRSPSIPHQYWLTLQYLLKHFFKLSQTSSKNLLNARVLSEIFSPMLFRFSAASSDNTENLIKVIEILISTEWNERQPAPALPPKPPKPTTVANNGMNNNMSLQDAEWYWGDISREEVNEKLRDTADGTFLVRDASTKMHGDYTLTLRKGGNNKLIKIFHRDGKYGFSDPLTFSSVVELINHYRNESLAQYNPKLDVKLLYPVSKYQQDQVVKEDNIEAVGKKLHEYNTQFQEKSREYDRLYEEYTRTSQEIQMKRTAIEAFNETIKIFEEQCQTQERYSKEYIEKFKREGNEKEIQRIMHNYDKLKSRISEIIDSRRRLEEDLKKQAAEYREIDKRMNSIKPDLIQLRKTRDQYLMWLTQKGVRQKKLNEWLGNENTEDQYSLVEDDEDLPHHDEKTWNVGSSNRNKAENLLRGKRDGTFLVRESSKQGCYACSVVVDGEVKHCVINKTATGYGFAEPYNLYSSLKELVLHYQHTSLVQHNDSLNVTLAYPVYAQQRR
Assay Text: PI3Kδ scintillation proximity assay
Assay type: biochemical
Measurement Parameters: 20 μM PIP2, 2 μM ATP, 3.4 nM PI3Kδ, 120 min, room temperature; read-out: PI3Kδ IC50
Where a name gives a salt, the structure may show the parent alone.
List of IC50 values.

Completed entries (count: 8):
Cc1ncc(-c2cn3c(-c4cc(C(C)(O)C(F)F)ccc4C)cnc3c(N)n2)o1 (centres unmarked) [Example 28] :: < 100 nM
Cc1cn2c(-c3cc(C(C)(O)C(F)(F)F)ccc3C)cnc2c(N)n1 (centres unmarked) [Example 7] :: 100 to 500 nM
Cc1ccc(C(C)(O)C(F)F)cc1-c1cnc2c(N)nc(-c3ccc(B(O)O)cc3)cn12 (centres unmarked) [Example 108, trifluoroacetate salt] :: < 100 nM
Cc1ccc(C(C)(O)C(F)(F)F)cc1-c1cnc2c(N)nc(-c3ccnc(CO)c3)cn12 (centres unmarked) [Example 10] :: < 100 nM
Cc1ccc(C(C)(O)C(F)(F)F)cc1-c1cnc2c(N)ncnn12 (centres unmarked) [Example 3] :: 500 to 2000 nM
Cc1ncc(-c2nc(N)c3ncc(-c4cc(C(C)(O)C(F)F)ccc4C)n3n2)o1 (single isomer, unassigned) [Example 52, trifluoroacetate salt] :: 100 to 500 nM
Cc1ccc(C(O)(CO)C(F)(F)F)cc1-c1cnc2c(N)nc(C(F)(F)F)cn12 (single isomer, unassigned) [Example 72] :: 100 to 500 nM
Cc1ccc(C(O)(C(F)(F)F)C(F)(F)F)cc1-c1cnc2c(N)nc(-c3ccnn3C)cn12 [Example 264] :: < 100 nM

Lab note: need IC50 with PI3Kδ (p110δ/p85α) Recombinant Human Protein (Homo sapiens (Human)) for entry Cc1ccc(C(C)(O)C(F)(F)F)cc1-c1cnc2c(N)nc(-c3cnc(C4CC4)s3)cn12 (centres unmarked) [Example 20, TFA] , please look it up.
< 100 nM

Any idea what IC50 came out for Cc1ccc(C(C)(O)C(F)(F)F)cc1-c1cnc2c(N)nc(CC(=O)N3CCOCC3)cn12 (centres unmarked) [Example 173, trifluoroacetate salt] on PI3Kδ (p110δ/p85α) Recombinant Human Protein (Homo sapiens (Human))?
500 to 2000 nM

Give PI3Kδ (p110δ/p85α) Recombinant Human Protein (Homo sapiens (Human)) IC50 for [2H]C([2H])([2H])c1ccc(C(C)(O)C(F)(F)F)cc1-c1cnc2c(N)nc(-c3cnn4c3CCC4)cn12 (centres unmarked) [Example 87, trifluoroacetate]
< 100 nM

# query: IC50 | item CCOC(=O)C1CC1c1cn2c(-c3cc(C(C)(O)C(F)F)ccc3C)cnc2c(N)n1 (single isomer, unassigned) [Example 75, trifluoroacetate salt] | system: PI3Kδ (p110δ/p85α) Recombinant Human Protein (Homo sapiens (Human))
100 to 500 nM

# get_value(readout= IC50, system= PI3Kδ (p110δ/p85α) Recombinant Human Protein (Homo sapiens (Human))) for Cc1ccc(C(C)(O)C(F)(F)F)cc1-c1cnc2c(N)nc(C3CC(CO)C3)cn12 (single isomer, unassigned) [Example 207, trifluoroacetate]
< 100 nM

Short answer please: IC50, PI3Kδ (p110δ/p85α) Recombinant Human Protein (Homo sapiens (Human)), entry Cc1ccc(C(C)(O)C(F)F)cc1-c1cnc2c(N)nc(C3CC3CO)cn12 (single isomer, unassigned) [Example 79]
500 to 2000 nM
